Each record here notes measured Human Clint.
# Test Details: CLint (intrinsic clearance) assay, microsomal incubation
# Format: in vitro ADME, Human
# Condition Label: human liver microsomes 0.5 mg/mL protein, NADPH, 37° C., up to 30 min

Record excerpt, results attached:
CC1=NC2(CCN(c3c(Cl)cncc3-c3ccc4c(c3)CS(=O)(=O)N4C)CC2)C(=O)N1 [Example 46] ... 16 µL/min/mg
Cc1nc(-c2ccc(-c3cncc(Cl)c3N3CCC4(CCNC4=O)CC3)cc2)cn1C [Example 18] ... 13 µL/min/mg
CC(C)(O)Cn1cc(-c2ccc(-c3cncc(Cl)c3N3CCC4(CCNC4=O)CC3)cc2)cn1 [Example 47] ... 23 µL/min/mg

Alright, here's another molecule for you.
Challenge: Name the recorded Human Clint for Cn1cc(-c2ccc(-c3cncc(F)c3N3CCC4(CC3)CNC(=O)O4)cc2)cn1 [Example 79] .
Response given: 24 µL/min/mg

---

Each record here notes measured microsomal CLint at 0.8 μM.
# Test Details: CLint (intrinsic clearance) assay, microsomal incubation
# Assay type: in vitro ADME, Human
# Condition Label: human, liver microsomes, pH 7.4, human liver microsomes 0.5 mg/mL protein, NADPH, 37° C., up to 30 min
Write down the numeric answer in µL/min/mg and omit the unit.

Record excerpt, results attached:
CCC1=NNC(=O)C12CCN(c1c(Cl)cncc1-c1ccc(-c3cnn(C)c3)cc1)CC2 ... 82
C[C@H]1NC(=O)OC12CCN(c1c(Cl)cncc1-c1ccc(-c3cnn(C)c3)cc1)CC2 ... 31
Cn1cc(-c2ccc(-c3cncc(Cl)c3N3CCC4(CC3)C(=O)Nc3ccccc34)cc2)cn1 ... 89
O=C1NCCC12CCN(c1c(Cl)cncc1-c1ccc3c(c1)C(O)CS3(=O)=O)CC2 (stereo not shown) ... 12
Cn1cc2cc(-c3cncc(Cl)c3N3CCC4(CCNC4=O)CC3)ccc2n1 ... 33
C[C@H]1NC(=O)OC12CCN(c1c(Cl)cncc1-c1ccc3c(c1)CS(=O)(=O)N3C)CC2 ... 39

Challenge: Name the recorded microsomal CLint at 0.8 μM for Cn1cc(-c2ccc(-c3cncc(Cl)c3N3CCC(F)(C(N)=O)CC3)cc2)cn1 .
Response given: 23

Challenge: Name the recorded microsomal CLint at 0.8 μM for Cn1ncc2cc(-c3cncc(Cl)c3N3CCC(N)(C(N)=O)CC3)ccc21 .
Response given: 37

Challenge: Name the recorded microsomal CLint at 0.8 μM for CC1NC(=O)OC12CCN(c1c(Cl)cncc1-c1ccc(-c3cnn(C)c3)cc1)CC2 (racemic) .
Response given: 26

Challenge: Name the recorded microsomal CLint at 0.8 μM for O=C1NCC2(CCN(c3c(Cl)cncc3-c3ccc(-c4cnn(C5COC5)c4)cc3)CC2)O1 .
Response given: 23

Challenge: Name the recorded microsomal CLint at 0.8 μM for Cn1nc(N)c2ccc(-c3cncc(Cl)c3N3CCC4(CC3)CC(=O)NC4=O)cc21 .
Response given: 60

Challenge: Name the recorded microsomal CLint at 0.8 μM for O=C1NCC2(CCN(c3c(Cl)cncc3-c3ccc(-c4cnn(C5CC5)c4)cc3)CC2)O1 .
Response given: 23

Challenge: Name the recorded microsomal CLint at 0.8 μM for CN1c2ccc(-c3cncc(Cl)c3N3CCC4(CC3)C[C@@H](C(F)(F)F)NC4=O)cc2CS1(=O)=O .
Response given: 57
